system: P94_40; assay: qHTS profiling for inhibitors of Plasmodium falciparum proliferation (AID 504749);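 note: 0% = DMSO vehicle and full inhibition = artemisinin control; nearly all actives have a fitted effect of over 60% in size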; conditions: P. falciparum in erythrocytes, SYBR Green DNA, 72 h; series mostly up to 28.7 µM
Inconclusive results are not listed. Activity calls are given as the source filed them. Calls come from the whole dose curve; as a rule, active = well fitted inhibition curve with a large enough effect; inconclusive = small, poorly fitted or top-dose-only effect; inactive = flat fitted curve, though single readings scatter.
The categories you may choose from are active, inactive

1) CCc1nnc(NS(=O)(=O)c2ccc(N)cc2)s1; inactive

I'd appreciate the recorded outcome for "CCOC(=O)[C@H](CCc1ccccc1)N[C@@H](C)C(=O)N1CCC[C@H]1C(=O)O" from this test.
inactive

Follow-up item: "NS(=O)(=O)c1ccc(NC(=O)CCC(=O)O)cc1"
inactive

Again, but for "CCN(CC)CCOC(=O)C(c1ccccc1)c1ccccc1"
inactive

Now the same for "CC(=O)N[C@@H](Cc1ccc(O)cc1)C(=O)O"
inactive

Would you mind doing "NNc1nnc(NN)c2ccccc12" as well?
inactive

----------
assay: A High-Content qHTS Against Drug Library for the Identification of Small Molecules that Inhibit DYT1 Early Onset Primary Dystonia-Associated Cell Pathology (AID 1645839); settings: HEK293 Flp-In EGFP-delE TorsinA, punctate imaging, 48 h; series mostly up to 46.1 µM
Records with an inconclusive call do not appear. Calls of active or inactive are those of the source. Calls come from the whole dose curve.
result_type: % pathology change, negative = correction

1) CNc1c2c(nn1C)CCCC2; inactive
2) CCCCCCCCCCCCCCCCN; inactive
3) CN1C(C)(C)CCCC1(C)C; inactive
4) CC[C@]12CCCN3CCc4c(n(c5ccccc45)[C@@](O)(C(=O)OC)C1)[C@@H]32; inactive

Fill in the blank: the reported % pathology change, negative = correction of CN1CCCN=C1COC(=O)C(O)(c1ccccc1)C1CCCCC1 (stereo not drawn) is ____.
inactive

----------
molecular target: Peroxisome proliferator-activated receptor alpha (Homo sapiens); test: qHTS assay for small molecule agonists of the peroxisome proliferator-activated receptor alpha (PPARalpha) signaling pathway (AID 651778); details: PathHunter PPARalpha complementation, chemiluminescence, 6 h; stronger effect = higher value; note: % of control where 0% means no effect
result_type: max response (%)
All answers are understood in %, so give the number only.

1) CC1CC(OC(=O)c2ccccc2O)CC(C)(C)C1 (stereo unspecified); -1.84

max response lookup needed for "CC(=O)NS(=O)(=O)c1ccc(N)cc1" , thanks.
-6.08

And the next one, "Cc1cc(O)cc(C)c1Cl" ?
-0.107

What would you report for FC(F)(F)C(Cl)Br (stereo unspecified) ?
-5.56

Same for "Cc1cc(=O)[nH]c(=S)[nH]1"
-5.54

Thanks! And "CC(=O)Nc1cccc(O)c1" ?
-0.0766

"CCCCCCCC(=O)OCC(COC(=O)CCCCCCC)OC(=O)CCCCCCC" , same question.
4.51

"CCCCCC(N)=O" , same question.
-2.19

Another: "O=C1c2cccc(O)c2C(=O)c2c(O)cccc21"
-5.75

Same thing, different compound: "CCCCCCCCCCCCCCCCCCO"
-0.423

What do you have for "Cc1ccc(C(C)C)c(O)c1" ?
-0.976

Same question, CCCC(O)C(CC)CO (stereo unspecified) this time
-4.25

Same again, this time with "Cc1c(C(=O)NCCO)[n+](=O)c2ccccc2n1[O-]"
-1.31

Likewise for "CC(=O)Nc1ccc(C(=O)O)cc1" ?
-0.167

"OC[C@@H](O)[C@@H](O)[C@H](O)[C@H](O)CO" ?
-1.72

Also check "CC(C)=CCC/C(C)=C/CO"
-2.93
